- PROTOCOL: Linaclotide food effect study: plasma levels of linaclotide and its metabolite
- Type: in vivo, human
- CONDITION_SUMMARY: human, plasma, po, 3000 ug, single oral dose 3000 ug, fasted, subject 001019
Positions of bridges follow the written chain, without caps; N, C: chain ends. Residues, ends and D or L forms follow the SMILES beside them.
REPORTED_METRIC: Tmax (min)
Give just the number in min; leave the unit off.

Exercise: Record request: Tmax value, item C[C@@H]1NC(=O)[C@@H]2CCCN2C(=O)[C@H](CC(N)=O)NC(=O)[C@@H]2CSSC[C@H](N)C(=O)N[C@H]3CSSC[C@H](NC1=O)C(=O)N[C@@H]([C@@H](C)O)C(=O)NCC(=O)N[C@H](C(=O)N[C@@H](Cc1ccc(O)cc1)C(=O)O)CSSC[C@H](NC(=O)[C@H](Cc1ccc(O)cc1)NC(=O)[C@H](CCC(=O)O)NC3=O)C(=O)N2 [Linaclotide] (H-CCEYCCNPACTGCY-OH; disulfide 1-6, 2-10, 5-13)
Solution: 30

* * *

- PROTOCOL: Linaclotide food effect study: plasma levels of linaclotide and its metabolite
- Type: in vivo, human
- CONDITION_SUMMARY: human, plasma, po, 3000 ug, single oral dose 3000 ug, fasted, subject 001019 (single measurable sample, at LLOQ)
Positions of bridges follow the written chain, without caps; N, C: chain ends. Residues, ends and D or L forms follow the SMILES beside them.
REPORTED_METRIC: Cmax (ng/mL)
Give just the number in ng/mL; leave the unit off.

Exercise: Record request: Cmax value, item C[C@@H]1NC(=O)[C@@H]2CCCN2C(=O)[C@H](CC(N)=O)NC(=O)[C@@H]2CSSC[C@H](N)C(=O)N[C@H]3CSSC[C@H](NC1=O)C(=O)N[C@@H]([C@@H](C)O)C(=O)NCC(=O)N[C@H](C(=O)N[C@@H](Cc1ccc(O)cc1)C(=O)O)CSSC[C@H](NC(=O)[C@H](Cc1ccc(O)cc1)NC(=O)[C@H](CCC(=O)O)NC3=O)C(=O)N2 [Linaclotide] (H-CCEYCCNPACTGCY-OH; disulfide 1-6, 2-10, 5-13)
Solution: 0.212

* * *

- PROTOCOL: Linaclotide food effect study: plasma levels of linaclotide and its metabolite
- Format: in vivo, human
- CONDITION_SUMMARY: human, plasma, po, 3000 ug, single oral dose 3000 ug, fasted, subject 001012
Positions of bridges follow the written chain, without caps; N, C: chain ends. Residues, ends and D or L forms follow the SMILES beside them.
REPORTED_METRIC: Tmax
Give the figure together with its unit, number first.

Exercise: Record request: Tmax value, item C[C@@H]1NC(=O)[C@@H]2CCCN2C(=O)[C@H](CC(N)=O)NC(=O)[C@@H]2CSSC[C@H](N)C(=O)N[C@H]3CSSC[C@H](NC1=O)C(=O)N[C@@H]([C@@H](C)O)C(=O)NCC(=O)N[C@H](C(=O)N[C@@H](Cc1ccc(O)cc1)C(=O)O)CSSC[C@H](NC(=O)[C@H](Cc1ccc(O)cc1)NC(=O)[C@H](CCC(=O)O)NC3=O)C(=O)N2 [Linaclotide] (H-CCEYCCNPACTGCY-OH; disulfide 1-6, 2-10, 5-13)
Solution: 2 h

* * *

- PROTOCOL: Linaclotide food effect study: plasma levels of linaclotide and its metabolite
- Assay type: in vivo, human
- CONDITION_SUMMARY: human, plasma, po, 3000 ug, single oral dose 3000 ug, fasted, subject 001012
Positions of bridges follow the written chain, without caps; N, C: chain ends. Residues, ends and D or L forms follow the SMILES beside them.
REPORTED_METRIC: Cmax (ng/mL)
Give just the number in ng/mL; leave the unit off.

Exercise: Record request: Cmax value, item C[C@@H]1NC(=O)[C@@H]2CCCN2C(=O)[C@H](CC(N)=O)NC(=O)[C@@H]2CSSC[C@H](N)C(=O)N[C@H]3CSSC[C@H](NC1=O)C(=O)N[C@@H]([C@@H](C)O)C(=O)NCC(=O)N[C@H](C(=O)N[C@@H](Cc1ccc(O)cc1)C(=O)O)CSSC[C@H](NC(=O)[C@H](Cc1ccc(O)cc1)NC(=O)[C@H](CCC(=O)O)NC3=O)C(=O)N2 [Linaclotide] (H-CCEYCCNPACTGCY-OH; disulfide 1-6, 2-10, 5-13)
Solution: 0.735
